Source listed as the supplement of paper PMC12042874.

Experiment: amyloid nucleation score (Sup35N fusion, yeast selection) (log enrichment); library NNK3; higher = more nucleation; inactive = no reads after selection;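 note: zero at mode of non-aggregating sequences after 7 days selection at 30°C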
MEASUREMENT NAME: amyloid nucleation score

[[record]]
substance = "DRRYEGGRKVQSYTVARPWS"
result_value = "inactive"

[[record]]
substance = "VINCIDMRLVYMLGETFFNY"
result_value = 2.03

[[record]]
substance = "NCLGPWPCLTTILYLRSLEF"
result_value = "inactive"

[[record]]
substance = "FFSAFID"
result_value = "inactive"

[[record]]
substance = "RYLSMELSQEYLFLVVSLVW"
result_value = "inactive"

[[record]]
substance = "FIPYYRCDQMLSGILVRFFS"
result_value = "inactive"

[[record]]
substance = "KDGFYNVPLVEPHMRSSSTP"
result_value = "inactive"

[[record]]
substance = "HFLMFMRIIWVLRCPQVESP"
result_value = "inactive"

[[record]]
substance = "LFFCHYILY"
result_value = 1.58

[[record]]
substance = "LFARRVGSYCVIVCQPVLWE"
result_value = "inactive"

[[record]]
substance = "YNGLGMIVPMFLVHPLK"
result_value = "inactive"

[[record]]
substance = "VTLCVVEPDCWRIGG"
result_value = "inactive"

[[record]]
substance = "TMHLTHRYSTVLRESLVGSR"
result_value = "inactive"

[[record]]
substance = "VEFSVFGERNVIYGVLSWRS"
result_value = 1.12

[[record]]
substance = "LMFGVIMPITDDMFYGQESV"
result_value = "inactive"

[[record]]
substance = "YNDDKYCFDMNCMSPRYRGD"
result_value = -0.191

[[record]]
substance = "ACIYYHTASCKRCQQAIESE"
result_value = "inactive"

[[record]]
substance = "RQHFRYHGIFAEFGSTFVRS"
result_value = "inactive"

[[record]]
substance = "LFLYLCTVYNDFKELQPRNL"
result_value = 2.67

[[record]]
substance = "ISTFVLNDAMLRRWET"
result_value = "inactive"

[[record]]
substance = "ISLYNRNIYCRLTFMLRVIR"
result_value = "inactive"

[[record]]
substance = "CKMLNYFLCT"
result_value = 1.1

[[record]]
substance = "NSSNII"
result_value = 2.56

[[record]]
substance = "CSPGTSCFGIKPRSSLSTTI"
result_value = "inactive"

[[record]]
substance = "ITLGACS"
result_value = "inactive"

[[record]]
substance = "WSRMTKSHKCRWDQLVTVHG"
result_value = "inactive"

[[record]]
substance = "TPHFYLIYALGISLIFWFVE"
result_value = "inactive"

[[record]]
substance = "MNRNLLFASTLTFNFVLFVW"
result_value = "inactive"

[[record]]
substance = "CWWCCATGTHSSSYIGRGVH"
result_value = 0.844

[[record]]
substance = "SRELNYVVAWIL"
result_value = "inactive"

[[record]]
substance = "VLTLLMKVEHTGVSHSVGRV"
result_value = 1.02

[[record]]
substance = "MFINECVSVYDQF"
result_value = "inactive"

[[record]]
substance = "LCRFNLYYWLVFELACSRWN"
result_value = "inactive"

[[record]]
substance = "ASNEERLLFKCLLKV"
result_value = -0.411

[[record]]
substance = "TVLVAGIGCEWSMGESTAMW"
result_value = "inactive"

[[record]]
substance = "TICLDLLDWEVEGPYNVVSG"
result_value = "inactive"

